Biological target: mutant G2019S LRRK2 (Homo sapiens, UniProt Q5S007, G2019S)
Sequence (Q5S007 970-2527 G2019S limits assumed): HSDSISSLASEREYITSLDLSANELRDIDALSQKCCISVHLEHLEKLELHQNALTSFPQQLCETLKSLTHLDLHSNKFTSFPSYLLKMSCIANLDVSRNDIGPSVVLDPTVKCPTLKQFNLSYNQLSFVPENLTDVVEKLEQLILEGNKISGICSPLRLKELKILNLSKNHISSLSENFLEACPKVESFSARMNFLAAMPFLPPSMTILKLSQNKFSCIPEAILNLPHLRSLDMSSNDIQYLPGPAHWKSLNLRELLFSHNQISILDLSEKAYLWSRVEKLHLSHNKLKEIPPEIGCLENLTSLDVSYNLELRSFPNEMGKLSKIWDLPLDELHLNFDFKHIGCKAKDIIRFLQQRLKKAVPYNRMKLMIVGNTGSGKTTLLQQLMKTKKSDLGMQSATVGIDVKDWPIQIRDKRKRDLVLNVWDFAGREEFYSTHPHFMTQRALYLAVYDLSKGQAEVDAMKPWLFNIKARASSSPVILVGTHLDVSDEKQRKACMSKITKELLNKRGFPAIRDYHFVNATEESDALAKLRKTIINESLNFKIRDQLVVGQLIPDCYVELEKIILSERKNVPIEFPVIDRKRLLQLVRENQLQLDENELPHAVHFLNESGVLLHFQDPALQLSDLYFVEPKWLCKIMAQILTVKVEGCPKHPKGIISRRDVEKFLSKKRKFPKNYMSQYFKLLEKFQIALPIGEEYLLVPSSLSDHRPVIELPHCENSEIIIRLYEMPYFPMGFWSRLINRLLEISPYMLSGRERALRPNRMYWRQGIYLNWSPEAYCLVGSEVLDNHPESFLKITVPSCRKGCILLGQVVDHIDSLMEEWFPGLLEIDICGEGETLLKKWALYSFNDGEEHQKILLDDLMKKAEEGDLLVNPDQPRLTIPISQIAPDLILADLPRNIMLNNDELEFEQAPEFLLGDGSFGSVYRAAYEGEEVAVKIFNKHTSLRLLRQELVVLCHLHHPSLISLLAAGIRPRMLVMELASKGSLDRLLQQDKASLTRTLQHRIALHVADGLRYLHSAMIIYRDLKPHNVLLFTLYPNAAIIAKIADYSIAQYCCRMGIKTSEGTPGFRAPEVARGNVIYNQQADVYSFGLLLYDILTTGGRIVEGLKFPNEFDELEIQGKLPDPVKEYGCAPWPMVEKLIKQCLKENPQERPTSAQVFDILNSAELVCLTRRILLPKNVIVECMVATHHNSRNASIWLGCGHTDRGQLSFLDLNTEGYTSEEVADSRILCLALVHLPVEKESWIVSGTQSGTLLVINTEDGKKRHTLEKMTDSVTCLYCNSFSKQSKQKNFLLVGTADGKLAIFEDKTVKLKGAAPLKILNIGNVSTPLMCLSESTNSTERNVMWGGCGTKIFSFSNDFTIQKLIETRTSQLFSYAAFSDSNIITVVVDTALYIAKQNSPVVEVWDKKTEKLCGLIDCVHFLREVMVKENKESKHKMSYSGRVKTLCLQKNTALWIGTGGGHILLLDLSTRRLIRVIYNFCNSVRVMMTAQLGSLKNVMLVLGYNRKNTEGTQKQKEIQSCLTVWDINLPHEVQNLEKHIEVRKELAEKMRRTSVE
Test: LRRK2 Assay, Format 2 (Lantha Screen), G2019S mutant
Format: biochemical
Set-up: purchased Invitrogen PV4881
Conditions: geometric mean of 2-4 determinations unless otherwise indicated (a: >=5; b: single determination); read-out: LRRK2, Format 2 G2019S IC50
Protocol: LRRK2 kinase activity was measured using Lantha Screen technology from Invitrogen. […] Upon completion, the assay was stopped and detected with a terbium labeled anti-phospho-ERM antibody (Invitrogen, cat # PR8975A). […] After an incubation of 1 hour at room temperature, the plate was read on an Envision with an excitation wavelength of 340 nm and a reading emission at both 520 nm and 495 nm. […] Inhibition of mutant G2019S LRRK2 (Invitrogen cat # PV4881) was measured in the exact same method. […]
pIC50: −log10 of the molar value. Structures can show the parent of a compound that is named as a salt.
Property: pIC50; scope: individual compounds

>  <compound>
N#Cc1ccc2ncc3nc(Cc4cscn4)n([C@@H]4CC[C@H](F)C4)c3c2c1 (single isomer, unassigned; ent-1) [Example 203]

>  <pIC50>
7.79

$$$$
>  <compound>
C[C@@H]1C[C@H](n2c(Cc3cncs3)nc3cnc4ccc(C#N)cc4c32)CCO1 [Example 231, formate salt]

>  <pIC50>
7.58

$$$$
>  <compound>
Cc1nc(Cc2nc3cnc4ccc(C#N)cc4c3n2[C@@H]2CCO[C@H](C)C2)c(C2CC2)o1 [Example 155, formate salt]

>  <pIC50>
8.05

$$$$
>  <compound>
C[C@@H]1C[C@H](n2c(Cc3cnccn3)nc3cnc4ccc(C#N)cc4c32)CCO1 [Example 98, formate salt]

>  <pIC50>
8.21

$$$$
>  <compound>
Cc1cc(Cc2nc3cnc4ccc(C#N)cc4c3n2[C@H]2CC[C@H](O)CC2)no1 [Example 240, formate salt]

>  <pIC50>
7.45

$$$$
>  <compound>
N#Cc1ccc2ncc3nc(Cn4cc(C(F)(F)F)cn4)n([C@@H]4CC[C@H](F)C4)c3c2c1 (single isomer, unassigned; ent-1) [Example 201]

>  <pIC50>
7.95

$$$$
>  <compound>
CC(F)(F)Cn1c(Cn2ccc(C3CC3)n2)nc2cnc3ccc(C#N)cc3c21 [Example 225]

>  <pIC50>
8.06

$$$$
>  <compound>
Cc1nn2cc(Cc3nc4cnc5ccc(C#N)cc5c4n3[C@@H]3CCO[C@H](C)C3)nc2s1 [Example 157, formate salt]

>  <pIC50>
8.42

$$$$
>  <compound>
Cc1cnn(Cc2nc3cnc4ccc(Cl)cc4c3n2[C@@H]2CCO[C@H](C)C2)c1 [Example 212]

>  <pIC50>
8.09

$$$$
>  <compound>
C[C@@H]1C[C@H](n2c(Cc3coc(C4CC4)n3)nc3cnc4ccc(C#N)cc4c32)CCO1 [Example 122, formate salt]

>  <pIC50>
8.43

$$$$
>  <compound>
Cc1cnn(Cc2nc3cnc4ccc(F)cc4c3n2[C@@H]2CCO[C@H](C)C2)c1 [Example 198]

>  <pIC50>
7.77

$$$$
>  <compound>
C[C@@H]1C[C@H](n2c(Cc3csnn3)nc3cnc4ccc(C#N)cc4c32)CCO1 [Example 195]

>  <pIC50>
8.64

$$$$
>  <compound>
Cc1nn2cc(Cc3nc4cnc5ccc(Cl)cc5c4n3[C@@H]3CCO[C@H](C)C3)nc2s1 [Example 162, formate salt]

>  <pIC50>
8.42

$$$$
>  <compound>
Cc1cc(Cc2nc3cnc4ccc(C#N)cc4c3n2[C@H]2CCC[C@H]2F)no1 (racemic) [Example 245, formate salt]

>  <pIC50>
7.73

$$$$
>  <compound>
N#CCc1nc2cnc3ccc(F)cc3c2n1[C@@H]1CC[C@H](F)C1 (single isomer, unassigned; ent-1) [Example 170]

>  <pIC50>
6.97

$$$$
>  <compound>
C[C@@H]1C[C@H](n2c(Cc3ccc(C(F)(F)F)cn3)nc3cnc4ccc(C#N)cc4c32)CCO1 [Example 208]

>  <pIC50>
7.84

$$$$
>  <compound>
C[C@@H]1C[C@H](n2c(Cc3cc4n(n3)CCC4)nc3cnc4ccc(Cl)cc4c32)CCO1 [Example 166, trifluoroacetate salt]

>  <pIC50>
8.13

$$$$
>  <compound>
CC1(C)CC(n2c(Cc3cc(C(F)(F)F)on3)nc3cnc4ccc(C#N)cc4c32)CCO1 (single isomer, unassigned; ent-2) [Example 177]

>  <pIC50>
6.04

$$$$
>  <compound>
Cc1nc(Cc2nc3cnc4ccc(Cl)cc4c3n2[C@@H]2CCO[C@H](CC#N)C2)no1 (single isomer, unassigned; ent-1) [Example 135]

>  <pIC50>
7.81

$$$$
>  <compound>
C[C@@H]1C[C@H](n2c(Cc3ccncn3)nc3cnc4ccc(C(F)(F)F)cc4c32)CCO1 [Example 178]

>  <pIC50>
8.48

$$$$
>  <compound>
Cc1cnn(Cc2nc3cnc4ccc(C#N)cc4c3n2[C@H]2CC[C@@H](F)C2)c1 (single isomer, unassigned) [Example C58]

>  <pIC50>
7.59

$$$$
>  <compound>
Cc1cc(Cc2nc3cnc4ccc(Cl)cc4c3n2[C@@H]2CCO[C@H](CO)C2)no1 [Example 137]

>  <pIC50>
7.92

$$$$
>  <compound>
Cc1cc(Cc2nc3cnc4ccc(C#N)cc4c3n2CC(F)F)no1 [Example 228]

>  <pIC50>
7.16

$$$$
>  <compound>
C[C@@H]1C[C@H](n2c(CC#N)nc3cnc4ccc(C#N)cc4c32)CCO1 [Example 117]

>  <pIC50>
7.71

$$$$
>  <compound>
Cc1cn(Cc2nc3cnc4ccc(Cl)cc4c3n2[C@H]2CC[C@@H](F)C2)nn1 (single isomer, unassigned) [Example C55]

>  <pIC50>
7.64

$$$$
>  <compound>
C[C@@H]1C[C@H](n2c(Cn3cc(C(F)(F)F)nn3)nc3cnc4ccc(C#N)cc4c32)CCO1 [Example 175]

>  <pIC50>
7.91

$$$$
>  <compound>
Cc1nn2cc(Cc3nc4cnc5ccc(C#N)cc5c4n3[C@@H]3CC[C@H](F)C3)nc2s1 (single isomer, unassigned; ent-1) [Example 168]

>  <pIC50>
7.94

$$$$
>  <compound>
Cc1cnc(Cc2nc3cnc4ccc(C#N)cc4c3n2C2CCOC(C)(C)C2)cn1 (single isomer, unassigned; ent-1) [Example 215]

>  <pIC50>
7.86

$$$$
